- measurement notes: Cytotoxicity assay on WI38 cells
- Type: cell-based
- protocol conditions: human, WI-38 normal fibroblast cells, pure compound (positive control), read-out: Cytotoxicity IC50 ± SD WI38
test readout: IC50 (nM)
Give the number; nM is assumed, so skip it.

Given `CC[C@@]1(O)C(=O)OCc2c1cc1n(c2=O)Cc2cc3ccccc3nc2-1` , state its recorded IC50. 31

----------
- measurement notes: Cytotoxicity assay on J774 cells
- Format: cell-based, murine
- protocol conditions: mouse, J774 macrophage-like cells, pure compound (positive control), read-out: Cytotoxicity IC50 ± SD J774
test readout: IC50 (nM)
Entry rule: numbers only, all in nM.

Given the entry CC[C@@]1(O)C(=O)OCc2c1cc1n(c2=O)Cc2cc3ccccc3nc2-1 [Camptothecin] , report its measured IC50. 10

Every entry's value here was drawn from paper PMC9860869.
